All figures here come from PubChem BioAssay AID2744.

- Measured Target: Citrate synthase, peroxisomal (Saccharomyces cerevisiae (strain ATCC 204508 / S288c)) (UniProt P08679)
- Sequence (P08679 whole entry, looked up): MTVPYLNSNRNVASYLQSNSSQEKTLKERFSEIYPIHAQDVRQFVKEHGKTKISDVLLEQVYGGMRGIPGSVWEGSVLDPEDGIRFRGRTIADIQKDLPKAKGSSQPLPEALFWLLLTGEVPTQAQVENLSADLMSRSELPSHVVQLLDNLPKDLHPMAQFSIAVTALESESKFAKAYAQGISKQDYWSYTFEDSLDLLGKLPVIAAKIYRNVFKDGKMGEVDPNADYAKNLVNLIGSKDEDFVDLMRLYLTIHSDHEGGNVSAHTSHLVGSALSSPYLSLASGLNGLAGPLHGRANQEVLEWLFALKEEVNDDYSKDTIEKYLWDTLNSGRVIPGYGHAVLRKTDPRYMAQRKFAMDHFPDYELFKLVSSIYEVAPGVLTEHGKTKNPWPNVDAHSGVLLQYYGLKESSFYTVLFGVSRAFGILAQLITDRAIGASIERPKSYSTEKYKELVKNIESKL
- Assay Protocol: CIT2-GFP expression modulators in yeast, dose response, flow cytometry, MLPCN hits (AID 2744)
- Applied Conditions: S. cerevisiae CIT2-GFP strain, 3 h, at 33 µM (top of the series)
Active and inactive are the calls of the source.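 Rule for the calls: active = fitted half-maximal concentration for changing reporter fluorescence at or below a set limit; inactive = the rest.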
Assay Endpoint: GFP fluorescence, higher = induction

Some solved entries appear below for comparison.
O=[N+]([O-])c1ccc(-c2cn3nc(-c4ccccc4)c(-c4ccccc4)nc3n2)cc1 :: inactive
Cc1cccc(NC(c2ccc(C)s2)c2ccc3ccc(C)nc3c2O)n1 (stereo unspecified) :: inactive
O=C1C(Cl)=C(Nc2ccccc2O)C(=O)N1c1ccccc1 :: inactive
COc1ccc(-c2cc(C(F)(F)F)nc(S(C)(=O)=O)n2)cc1 :: inactive
Nc1nc2ncc(CNc3ccc(C(=O)N[C@@H](CCC(=O)O)C(=O)O)cc3)nc2c(=O)[nH]1 :: inactive
CCCCC1OC23CCCCC2C(C#N)(C(=N)O3)C1(C#N)C#N (stereo unspecified) :: inactive
COc1cc(CNC(=O)CCCCCCC(C)C)ccc1O :: inactive
Cc1cc(C)nc(S/C=C/C(=O)c2ccccc2)n1 :: inactive
Cc1ccc(S(=O)(=O)N2CC(C(=O)O)=CC[C@H]2c2ccc(Cl)cc2)cc1 :: inactive
CC(C)(C)n1nc(-c2ccc(F)cc2)c2c(N)ncnc21 :: inactive

Below: the item to evaluate.
What value of measured GFP fluorescence, higher = induction is listed for CS(=O)(=O)c1nc(-c2cccs2)cc(C(F)(F)F)n1 ?
inactive
